# Test system: P-Akt (S473)
# PROTOCOL TEXT: Cell based AlphaLISA assay, inhibition of P-Akt (S473) (mTORC2 substrate phosphorylation) in MDA-MB-468 cells
# DETAILS: Homo sapiens, MDA-MB-468, 4 h, AlphaLISA, two to four hours at 37° C., read-out: pIC50 for Inhibition of mTORC1 and mTORC2 Substrate Phosphorylation, p-AKT 1/2/3 -(S473) (converted)
# Method: Cell Based AlphaLISA Assays for Determining IC50 for Inhibition of P-Akt (S473), P-4E-BP1 (T37/46), and P-P70S6K (T389) in MDA-MB-468 Cells mTOR Kinase Cellular Assay To measure functional activity of mTORC1 and mTORC2 in cells the phosphorylation of 4EBP1 (Thr37/46) and P70S6K (Thr389), and AKT1/2/3 (Ser473) was monitored using AlphaLisa SureFire Ultra Kits (Perkin Elmer). […] Incubations were terminated by removal of the assay buffer and addition of lysis buffer provided with the assay kit. […]
MEASURE NAME: IC50

For the compound CO[C@H]1C[C@@H]2CC[C@@H](C)[C@@](O)(O2)C(=O)C(=O)N2CCCC[C@H]2C(=O)O[C@H]([C@H](C)C[C@@H]2CC[C@@H](O)[C@H](OC)C2)C[C@@H](O)[C@H](C)/C=C(\C)[C@@H](O)[C@@H](OC)C(=NOCc2cn(-c3cnc(N4CCN(c5ncc(C(=O)NCCOCCOCCOCCC(=O)NCCCCn6nc(-c7ccc8oc(N)nc8c7)c7c(N)ncnc76)cn5)CC4)nc3)nn2)[C@H](C)C[C@H](C)/C=C/C=C/C=C/1C , give its reported IC50.
> 1000 nM

For the compound CO[C@H]1C[C@@H]2CC[C@@H](C)[C@@](O)(O2)C(=O)C(=O)N2CCCC[C@H]2C(=O)O[C@H]([C@H](C)C[C@@H]2CC[C@@H](OCCCCc3cn(CCOCCOCCOCCOCCOCCOCCC(=O)N(C)CCCCn4nc(-c5ccc6oc(N)nc6c5)c5c(N)ncnc54)nn3)[C@H](OC)C2)CC(=O)[C@H](C)/C=C(\C)[C@@H](O)[C@@H](OC)C(=O)[C@H](C)C[C@H](C)/C=C/C=C/C=C/1C , give its reported IC50.
3.16 to 31.6 nM

For the compound CO[C@H]1C[C@@H]2CC[C@@H](C)[C@@](O)(O2)C(=O)C(=O)N2CCCC[C@H]2C(=O)O[C@H]([C@H](C)C[C@@H]2CC[C@H](n3cc(CCCC(=O)NCCOCCOCCOCCC(=O)NCCOCCOCCC(=O)NCCCCn4nc(-c5cc6cc(O)ccc6[nH]5)c5c(N)ncnc54)nn3)[C@H](OC)C2)C[C@@H](OC)[C@H](C)/C=C(\C)[C@@H](O)[C@@H](OC)C(=O)[C@H](C)C[C@H](C)/C=C/C=C/C=C/1C , give its reported IC50.
> 1000 nM

For the compound CO[C@H]1C[C@@H]2CC[C@@H](C)[C@@](O)(O2)C(=O)C(=O)N2CCCC[C@H]2C(=O)O[C@H]([C@H](C)C[C@@H]2CC[C@H](n3cc(CCCC(=O)NCCOCCOCCOCCC(=O)NCCOCCOCCOCCC(=O)NCCCCn4nc(-c5ccc6oc(N)nc6c5)c5c(N)ncnc54)nn3)[C@H](OC)C2)C/C(=N/OC(C)(C)C)[C@H](C)/C=C(\C)[C@@H](O)[C@@H](OC)C(=O)[C@H](C)C[C@H](C)/C=C/C=C/C=C/1C , give its reported IC50.
> 1000 nM

For the compound CO[C@H]1C[C@@H]2CC[C@@H](C)[C@@](O)(O2)C(=O)C(=O)N2CCCC[C@H]2C(=O)O[C@H]([C@H](C)C[C@@H]2CC[C@H](n3cc(COCCOCCOCCOCCOCCOCCOCCOCCOCCOCCC(=O)NCCCCn4nc(-c5cc6cc(O)ccc6[nH]5)c5c(N)ncnc54)nn3)[C@H](OC)C2)CC(=O)[C@H](C)/C=C(\C)[C@@H](O)[C@@H](OC)C(=O)[C@H](C)C[C@H](C)/C=C/C=C/C=C/1C , give its reported IC50.
31.6 to 1000 nM

* * *

# Tested on: P-Akt (S473)
# PROTOCOL TEXT: Cell based AlphaLISA assay, inhibition of P-Akt (S473) (mTORC2 substrate phosphorylation) in MDA-MB-468 cells
# DETAILS: Homo sapiens, MDA-MB-468, 4 h, AlphaLISA, two to four hours at 37° C., read-out: pIC50 for Inhibition of mTORC1 and mTORC2 Substrate Phosphorylation, p-AKT 1/2/3 -(S473) (converted)
Please respond with reported IC50 for every item in the list.

For the compound CO[C@H]1C[C@@H]2CC[C@@H](C)[C@@](O)(O2)C(=O)C(=O)N2CCCC[C@H]2C(=O)O[C@H]([C@H](C)C[C@@H]2CC[C@@H](OCc3cccc(-c4cnc(N5CCN(C(=O)CCc6cn(CCOCCOCCC(=O)NCCCCn7nc(-c8ccc9oc(N)nc9c8)c8c(N)ncnc87)nn6)CC5)nc4)c3)[C@H](OC)C2)CC(=O)[C@H](C)/C=C(\C)[C@@H](O)[C@@H](OC)C(=O)[C@H](C)C[C@H](C)/C=C/C=C/C=C/1C , give its reported IC50.
0.00316 to 0.0316 µM

For the compound CO[C@H]1C[C@@H]2CC[C@@H](C)[C@@](O)(O2)C(=O)C(=O)N2CCCC[C@H]2C(=O)O[C@H]([C@H](C)C[C@@H]2CC[C@H](n3cc(COC(=O)NCCOCCOCCOCCC(=O)NCCOCCOCCC(=O)NCCCCn4nc(-c5ccc6oc(N)nc6c5)c5c(N)ncnc54)nn3)[C@H](OC)C2)CC(=O)[C@H](C)/C=C(\C)[C@@H](O)[C@@H](OC)C(=O)[C@H](C)C[C@H](C)/C=C/C=C/C=C/1C , give its reported IC50.
0.0316 to 1 µM

For the compound CO[C@H]1C[C@@H]2CC[C@@H](C)[C@@](O)(O2)C(=O)C(=O)N2CCCC[C@H]2C(=O)O[C@H]([C@H](C)C[C@@H]2CC[C@@H](O)[C@H](OC)C2)C[C@@H](O)[C@H](C)/C=C(\C)[C@@H](O)[C@@H](OC)C(=NOCc2cn(CCOCCOCCOCCOCCOCCOCCOCCOCCC(=O)NCCCCn3nc(-c4cc5cc(O)ccc5[nH]4)c4c(N)ncnc43)nn2)[C@H](C)C[C@H](C)/C=C/C=C/C=C/1C , give its reported IC50.
> 1 µM

* * *

# System: P-Akt (S473)
# PROTOCOL TEXT: Cell based AlphaLISA assay, inhibition of P-Akt (S473) (mTORC2 substrate phosphorylation) in MDA-MB-468 cells
# DETAILS: Homo sapiens, MDA-MB-468, 4 h, AlphaLISA, two to four hours at 37° C., read-out: pIC50 for Inhibition of mTORC1 and mTORC2 Substrate Phosphorylation, p-AKT 1/2/3 -(S473) (converted)
MEASURE NAME: IC50

For the molecule CO[C@H]1C[C@@H]2CC[C@@H](C)[C@@](O)(O2)C(=O)C(=O)N2CCCC[C@H]2C(=O)O[C@H]([C@H](C)C[C@@H]2CC[C@@H](O)[C@H](OC)C2)C[C@@H](O)[C@H](C)/C=C(\C)[C@@H](O)[C@@H](OC)C(=NOCc2cn(-c3cnc(N4CCN(c5ncc(C(=O)NCCOCCC(=O)NCCCCn6nc(-c7ccc8oc(N)nc8c7)c7c(N)ncnc76)cn5)CC4)nc3)nn2)[C@H](C)C[C@H](C)/C=C/C=C/C=C/1C [Example 191] , give its reported IC50.
> 1000 nM

For the molecule CO[C@H]1C[C@@H]2CC[C@@H](C)[C@@](O)(O2)C(=O)C(=O)N2CCCC[C@H]2C(=O)O[C@H]([C@H](C)C[C@@H]2CC[C@H](n3cc(CCCC(=O)NCCOCCOCCOCCOCCC(=O)NCCOCCOCCOCCOCCC(=O)NCCCCn4nc(-c5ccc6oc(N)nc6c5)c5c(N)ncnc54)nn3)[C@H](OC)C2)CC(=O)[C@H](C)/C=C(\C)[C@@H](O)[C@@H](OC)C(=O)[C@H](C)C[C@H](C)/C=C/C=C/C=C/1C [Example 134] , give its reported IC50.
3.16 to 31.6 nM

For the molecule CO[C@H]1C[C@@H]2CC[C@@H](C)[C@@](O)(O2)C(=O)C(=O)N2CCCC[C@H]2C(=O)O[C@H]([C@H](C)C[C@@H]2CC[C@@H](OCCCCc3cn(CCOCCOCCOCCOCCOCCOCCOCCOCCNC(=O)c4ccc(-c5ccc6c(N7CCOC[C@H]7C)nc(N7CCOC[C@H]7C)nc6n5)cc4)nn3)[C@H](OC)C2)CC(=O)[C@H](C)/C=C(\C)[C@@H](O)[C@@H](OC)C(=O)[C@H](C)C[C@H](C)/C=C/C=C/C=C/1C [Example 107] , give its reported IC50.
< 3.16 nM

For the molecule CCO[C@@H]1C[C@@H]([C@H](C)C[C@@H]2CC[C@H](n3cc(COC(=O)NCCOCCOCCOCCC(=O)NCCOCCOCCC(=O)NCCCCn4nc(-c5ccc6oc(N)nc6c5)c5c(N)ncnc54)nn3)[C@H](OC)C2)OC(=O)[C@@H]2CCCCN2C(=O)C(=O)[C@]2(O)O[C@@H](CC[C@H]2C)C[C@H](OC)/C(C)=C/C=C/C=C/[C@@H](C)C[C@@H](C)C(=O)[C@H](OC)[C@H](O)/C(C)=C/[C@H]1C [Example 147] , give its reported IC50.
> 1000 nM

For the molecule CO[C@H]1C[C@@H]2CC[C@@H](C)[C@@](O)(O2)C(=O)C(=O)N2CCCC[C@H]2C(=O)O[C@H]([C@H](C)C[C@@H]2CC[C@@H](OCCCCc3cn(CCOCCOCCOCCOCCOCCOCCOCCOCCOCCOCCOCCOCCOCCOCCOCCOCCOCCOCCOCCOCCOCCOCCOCCOCCC(=O)NCCCCn4nc(-c5ccc6oc(N)nc6c5)c5c(N)ncnc54)nn3)[C@H](OC)C2)CC(=O)[C@H](C)/C=C(\C)[C@@H](O)[C@@H](OC)C(=O)[C@H](C)C[C@H](C)/C=C/C=C/C=C/1C [Example 97] , give its reported IC50.
3.16 to 31.6 nM
